molecular target: LmjIPCS (inositol phosphorylceramide synthase from L. major) (Leishmania major, UniProt E9AFX2); test: biochemical; format: biochemical; set-up: dose or concentration left out as unconfirmed; conditions: read-out: inhibition LmjIPCS
Sequence (E9AFX2 whole entry): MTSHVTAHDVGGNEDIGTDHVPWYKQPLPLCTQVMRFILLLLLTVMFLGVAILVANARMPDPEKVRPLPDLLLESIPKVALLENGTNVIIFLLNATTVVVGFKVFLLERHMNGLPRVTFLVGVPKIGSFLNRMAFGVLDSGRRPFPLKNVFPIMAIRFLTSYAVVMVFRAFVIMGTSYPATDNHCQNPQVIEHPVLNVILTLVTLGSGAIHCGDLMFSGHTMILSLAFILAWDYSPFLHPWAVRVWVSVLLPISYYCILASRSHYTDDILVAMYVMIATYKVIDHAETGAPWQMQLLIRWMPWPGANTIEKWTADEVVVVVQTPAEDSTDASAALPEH
Reported inhibition is given for each of the following compounds.
Supply the numeric figure in %, leaving out any unit text.

Some solved entries appear below for comparison.
[
  {
    "compound": "NCCCC(=O)O",
    "measurementUnits": "%",
    "inhibition": -20
  },
  {
    "compound": "O=c1cc(-c2ccccc2)oc2cc(O)c(O)c(O)c12",
    "measurementUnits": "%",
    "inhibition": 32
  },
  {
    "compound": "CC1COc2c(N3CCN(C)CC3)c(F)cc3c(=O)c(C(=O)O)cn1c23 (stereo not shown)",
    "measurementUnits": "%",
    "inhibition": 5
  },
  {
    "compound": "NC[C@@H]1O[C@H](O[C@H]2[C@@H](O)[C@H](O[C@@H]3[C@@H](O)[C@H](N)C[C@H](N)[C@H]3O[C@H]3O[C@H](CO)[C@@H](O)[C@H](O)[C@H]3N)O[C@@H]2CO)[C@H](N)[C@@H](O)[C@@H]1O [paromomycin, reference compound]",
    "measurementUnits": "%",
    "inhibition": -17
  },
  {
    "compound": "O=C1C[C@@H](c2ccc(O)cc2)Oc2cc(O)cc(O)c21",
    "measurementUnits": "%",
    "inhibition": 17
  },
  {
    "compound": "O=C(O)c1cc(=O)c2c(OCC(O)COc3cccc4oc(C(=O)O)cc(=O)c34)cccc2o1",
    "measurementUnits": "%",
    "inhibition": 0.579
  }
]

Let us examine a further case.
What inhibition value was documented for this compound, C[C@]12C=CC(=O)C=C1CC[C@@H]1[C@@H]2C(=O)C[C@@]2(C)[C@H]1CC[C@]2(O)C(=O)CO ?
-4
